Hi there, I'd appreciate the recorded selective drug sensitivity score for every entry that follows.
System: COG-LL-402h
Experiment: selective drug sensitivity score (sDSS, relative to normal bone marrow) (sDSS (score)); higher = more potent and effective on the cell line relative to normal bone marrow cells;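 note: ALL cell lines in 384-well plates, five doses spanning 10,000-fold, each plate scaled between vehicle and 100 µmol/L benzalkonium chloride controls, sDSS an adapted area-under-curve metric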
Conditions: 72 h
Give bare numbers.

// known answers, use as guide
| COMPOUND | SUBJECT OF TEST | selective drug sensitivity score |
| --- | --- | --- |
| O=C(Nc1ccc(OC(F)(F)Cl)cc1)c1cnc(N2CC[C@@H](O)C2)c(-c2cc[nH]n2)c1 [Asciminib] (top concentration 1000 nM) | COG-LL-402h | -1.98 |
| CO[C@H]1C(=O)[C@]2(C)[C@@H](OC)C[C@H]3OC[C@@]3(OC(C)=O)[C@H]2[C@H](OC(=O)c2ccccc2)[C@]2(O)C[C@H](OC(=O)[C@H](O)[C@@H](NC(=O)OC(C)(C)C)c3ccccc3)C(C)=C1C2(C)C [Cabazitaxel] (top concentration 1000 nM) | COG-LL-402h | 17.1 |

For the 7 compounds below, give their selective drug sensitivity score values.
1. Nc1cc(F)ccc1NC(=O)/C=C/c1cnn(C/C=C/c2ccccc2)c1 [RGFP966] (top concentration 10000 nM)
2. COc1cc2c(NC3CCN(C(C)C)CC3)nc(N3CCC(F)(F)CC3)nc2cc1OCCCN1CCCC1 [UNC0642] (top concentration 10000 nM)
3. C[C@@H]1CN(Cc2ccc(F)cc2)[C@@H](C)CN1C(=O)c1cc2c(C(=O)C(=O)N(C)C)cn(C)c2cc1Cl [Talmapimod] (top concentration 10000 nM)
4. O=c1[nH]c(=O)n([C@H]2C[C@H](O)[C@@H](CO)O2)cc1F [Floxuridine] (top concentration 10000 nM)
5. Clc1ccc(Nc2nnc(Cc3ccncc3)c3ccccc23)cc1 [Vatalanib] (top concentration 10000 nM)
6. O=C(c1ccc(OCCN2CCCCC2)cc1)c1c(-c2ccc(O)cc2)sc2cc(O)ccc12 [Raloxifene] (top concentration 10000 nM)
7. S=C(NCc1ccc2c(c1)OCO2)N1CCN(c2ncnc3c2oc2ccccc23)CC1 [Amuvatinib] (top concentration 10000 nM)

[6.84, 2.66, 0, 28.2, 0, -1.68, 2.36]

====

Test system: P30-OHKUBO
Assay: selective drug sensitivity score (sDSS, relative to normal bone marrow) (sDSS (score)); higher = more potent and effective on the cell line relative to normal bone marrow cells
Settings: 72 h
Hi there, I'd appreciate the recorded selective drug sensitivity score for every entry that follows.
Answers are plain numbers.

For the 6 compounds below, give their selective drug sensitivity score values.
1. COc1c(OCCCN2CCOCC2)ccc2c1N=C(NC(=O)c1cnc(N)nc1)N1CCN=C21 [Copanlisib] (top concentration 1000 nM)
2. CCCC(CCC)C(=O)O [Valproic_acid] (top concentration 1000000 nM)
3. C[C@]12C=CC(=O)C=C1CC[C@@H]1[C@@H]2[C@@H](O)C[C@@]2(C)[C@H]1CC[C@]2(O)C(=O)CO [Prednisolone] (top concentration 10000 nM)
4. O=C(/C=C/c1cccnc1)NCCCCC1CCN(C(=O)c2ccccc2)CC1 [Daporinad] (top concentration 1000 nM)
5. Cc1nn(C)c(COc2ccc(N3CCN(S(=O)(=O)N(C)C)CC3)cc2)c1-c1cccc2c(CCCOc3cccc4ccccc34)c(C(=O)O)n(CCN3CCOCC3)c12 (top concentration 50000 nM)
6. CC[C@@H]1C(=O)N(C)c2cnc(Nc3ccc(C(=O)N[C@H]4CC[C@H](N5CCN(CC6CC6)CC5)CC4)cc3OC)nc2N1C(C)C [Volasertib] (top concentration 1000 nM)

1: 10.1; 2: 0; 3: 15; 4: 16; 5: 4.46; 6: 13.1

====

Tested on: CCRF-CEM
Test: selective drug sensitivity score (sDSS, relative to normal bone marrow) (sDSS (score)); higher = more potent and effective on the cell line relative to normal bone marrow cells
Settings: 72 h
Hi there, I'd appreciate the recorded selective drug sensitivity score for every entry that follows.

// known answers, use as guide
| COMPOUND | selective drug sensitivity score |
| --- | --- |
| COc1cc2nccc(Oc3ccc(NC(=O)Nc4cc(C)on4)c(Cl)c3)c2cc1OC [Tivozanib] (top concentration 10000 nM) | 1.26 |
| Cc1ccc(=O)n(-c2ccccc2)c1 [Pirfenidone] (top concentration 10000 nM) | 0 |
| CNC(=O)c1ccccc1Nc1cc(Nc2ccc(N3CCOCC3)cc2OC)ncc1C(F)(F)F [VS-4718] (top concentration 10000 nM) | 2 |

Here is another compound to look at.
# input compound: C[C@@H](Oc1cc(-n2cnc3ccc(CN4CCN(C)CC4)cc32)sc1C(N)=O)c1ccccc1C(F)(F)F (top concentration 10000 nM) ; wanted: its selective drug sensitivity score
22.7

====

Test system: COG-LL-394h
Experiment: selective drug sensitivity score (sDSS, relative to normal bone marrow) (sDSS (score)); higher = more potent and effective on the cell line relative to normal bone marrow cells
Conditions: 72 h
VALUE TYPE: selective drug sensitivity score
Give bare numbers.

// known answers, use as guide
| COMPOUND | selective drug sensitivity score |
| --- | --- |
| Cc1cc([C@@H](C)Nc2ccccc2C(=O)O)c2nc(N3CCOCC3)cc(=O)n2c1 [AZD-6482] (top concentration 2500 nM) | -0.28 |
| CNC(=O)c1ccccc1Nc1nc(Nc2ccc3c(c2OC)CCC[C@H](N2CCN(CCO)CC2)C3)ncc1Cl (top concentration 5000 nM) | 3.16 |
| CNC(=O)c1ccccc1Nc1cc(Nc2ccc(N3CCOCC3)cc2OC)ncc1C(F)(F)F [VS-4718] (top concentration 10000 nM) | -0.4 |
| CN(C)c1cc2c(cc1Sc1nc3c(N)nccc3n1CCNCC(C)(C)C)OCO2 [CUDC-305] (top concentration 10000 nM) | -1.28 |
| O=C1Cc2cc(C(=O)NC3C[C@H]4CC[C@@H](C3)N4S(=O)(=O)CC3CCN(CCCC(F)(F)F)CC3)c(Cl)cc2N1 (stereo partly drawn) (top concentration 10000 nM) | 0 |
| Cc1cn(-c2cc(NC(=O)c3ccc(C)c(Nc4nccc(-c5cccnc5)n4)c3)cc(C(F)(F)F)c2)cn1 [Nilotinib] (top concentration 10000 nM) | 0.7 |

For the 6 compounds below, give their selective drug sensitivity score values.
1. COc1ncc(-c2ccc3nccc(-c4ccnnc4)c3c2)cc1NS(=O)(=O)c1ccc(F)cc1F [Omipalisib] (top concentration 1000 nM)
2. FC(F)c1nc2ccccc2n1-c1nc(N2CCOCC2)nc(N2CCOCC2)n1 [ZSTK474] (top concentration 10000 nM)
3. O=c1sn(-c2cccc3ccccc23)c(=O)n1Cc1ccccc1 [Tideglusib] (top concentration 3000 nM)
4. O=C(CCNC(=O)c1ccc(OC(F)(F)F)cc1)N[C@@H]1CCCc2ccccc21 [ML390] (top concentration 50000 nM)
5. CO[C@H]1CC[C@H](N2C(=O)CNc3ncc(-c4ccc(C(C)(C)O)nc4)nc32)CC1 [CC-223] (top concentration 10000 nM)
6. COc1cc2nccc(Oc3ccc(NC(=O)NC4CC4)c(Cl)c3)c2cc1C(N)=O [Lenvatinib] (top concentration 2500 nM)

1: -1.1; 2: 0.86; 3: -0.3; 4: -1.2; 5: -2.28; 6: 0.26

# input compound: O=c1[nH]c(=O)n([C@H]2C[C@H](O)[C@@H](CO)O2)cc1F [Floxuridine] (top concentration 10000 nM) ; wanted: its selective drug sensitivity score
3.62

====

System: MHH-CALL-2
Test: selective drug sensitivity score (sDSS, relative to normal bone marrow) (sDSS (score)); higher = more potent and effective on the cell line relative to normal bone marrow cells
Settings: 72 h
VALUE TYPE: selective drug sensitivity score
Give bare numbers.

// known answers, use as guide
| COMPOUND | SUBJECT OF TEST | selective drug sensitivity score |
| --- | --- | --- |
| CC#CC(=O)N1CC[C@@H](n2c(=O)n(-c3ccc(Oc4ccccc4)cc3)c3c(N)ncnc32)C1 [Tirabrutinib] (top concentration 1000 nM) | MHH-CALL-2 | 0 |
| CC(=O)OC[C@H]1O[C@@H]([S-])[C@H](OC(C)=O)[C@@H](OC(C)=O)[C@@H]1OC(C)=O.CCP(CC)CC.[Au+] [Auranofin] (top concentration 2500 nM) | MHH-CALL-2 | 8.14 |
| COc1ccc(CCc2nc3cc(-c4c(C)noc4C)ccc3n2C[C@H](C)N2CCOCC2)cc1Cl [SGC-CBP30] (top concentration 25000 nM) | MHH-CALL-2 | 5.88 |
| Cc1ccc(NC(=O)c2ccc(CN3CCN(C)CC3)cc2)cc1Nc1nc(-c2cccnc2)cs1 [Masitinib] (top concentration 10000 nM) | MHH-CALL-2 | -1.68 |

For the 2 compounds below, give their selective drug sensitivity score values.
1. COc1ccc(C[C@H](NC(=O)[C@H](C)NC(=O)CN2CCOCC2)C(=O)N[C@@H](Cc2ccccc2)C(=O)[C@@]2(C)CO2)cc1 [ONX-0914] (top concentration 10000 nM)
2. NCCNc1ccc(NCCN)c2c1C(=O)c1ccncc1C2=O [Pixantrone] (top concentration 10000 nM)

0.5
1.34
